Literature compilation of pIC50 measurements on IKKε (Homo sapiens, UniProt Q14164).
pIC50 here is simply -log10 of the concentration when that concentration is written in mol/L.

Field: example entries. Status: answers known.
N#Cc1cc(-c2ccnc(Nc3cncc(C4=CCCCO4)n3)c2)ccc1OC1CCOCC1; 6.03
N#Cc1cc(-c2ccnc(Nc3cnn([C@H]4CC[C@@H](O)CC4)c3)n2)ccc1OC1CCOCC1; 8.00
CC(C)NC(=O)N1CC=C(c2c[nH]c3ncc(-c4cccc(CN5CCOCC5)c4)cc23)CC1; 7.54
N#Cc1cc(-c2ccnc(Nc3cnc(C4CCNCC4)cn3)c2)ccc1OC1CCOCC1; 8.15
Nc1ncc(-c2ccoc2)cc1C(=O)Nc1ccncc1; 6.85

Let us examine a further case.
Task: Param item = "COCCn1cc(-c2cnc(N)c(C(=O)Nc3ccncc3C)c2)cn1" ; retrieve measured pIC50.
Result: 5.62

====

pIC50: −log10 of the molar value.
The entries below pair molecules with pIC50 values for IKKε (Homo sapiens, UniProt Q14164), as found in several publications.

N#Cc1cc(-c2c[nH]c3ncc(-c4cn(CCN5CCCC5)nn4)cc23)ccc1OC1CCOCC1; > 6.52
COc1nc(Nc2cc(-c3ccc(OC4CCOCC4)c(C#N)c3)ncn2)ccc1C1CCN(CC(F)(F)F)CC1; 6.00 to 7.00
COc1cc(-c2cc3nccc(-c4ccc(OC5CCOCC5)c(C#N)c4)c3o2)ccc1C(=O)NC1CCN(C)CC1; > 6.52

As a next step, examine the molecule that follows.
Task: What pIC50 appears in the records for this molecule with IKKε (Homo sapiens, UniProt Q14164)? "CN1CCN(C(=O)c2ccc(-c3cc4nccc(-c5ccc(N6CCOCC6)c(C#N)c5)c4o3)cc2)CC1"
Result: > 6.52

====

Here's a roundup of pIC50 values tested on IKKε (Homo sapiens, UniProt Q14164), taken from various published works.
Value format note: pIC50 is -log10 of concentration (mol/L); just state the number.

Cc1nnc(-c2cnc3[nH]cc(C4=CCN(C(=O)OC(C)(C)C)CC4)c3c2)s1; 6.55
Cc1cc(Nc2nccc(-c3ccc(OC4CCOCC4)c(C#N)c3)n2)no1; 6.68

As a next step, examine the compound that follows.
Task: What reported pIC50 corresponds to "COc1cccc(Nc2cc(-c3ccc(N)c4c3CNC4=O)ncn2)c1" on IKKε (Homo sapiens, UniProt Q14164)?
Result: 5.86

====

Here, compounds appear alongside IC50 reported for IKKε (Homo sapiens) in the literature.

CCN(CCN(C)C)C(=O)c1ccc(-c2cc3nccc(-c4ccc(OC5CCOCC5)c(C#N)c4)c3s2)cc1OC; < 0.3 µM

Task: Name the reported IC50 value associated with the compound COc1nc(Nc2cc(-c3ccc(OC4CCN(C(=O)[C@@H](C)O)CC4(F)F)c(C#N)c3)ncn2)ccc1N1CCN(C)[C@@H](C)C1 (stereo partly drawn)
Result: < 0.1 µM

Task: What value of IC50 has been recorded for this entry: "COc1cc(-c2cc3nccc(-c4ccc(OC5CCOCC5)c(C#N)c4)c3o2)ccc1C(=O)N[C@H]1CCCNC1"
Result: < 0.3 µM

Task: I'd like to know its IC50. The compound in question is "COc1cc(-c2cc3nccc(-c4ccc(OC5CCOCC5)c(C#N)c4)c3o2)ccc1C(=O)NC1CCOCC1"
Result: < 0.3 µM

Task: Which value of IC50 has been reported for "Cn1cc(-c2cnc3[nH]cc(-c4cn(Cc5ccccc5C#N)nn4)c3n2)cn1" in the records?
Result: 0.0005 to 1 µM

Task: What value of measured IC50 is listed for "COc1cc(-c2cc3nccc(-c4ccc(OC5CCOCC5)c(C#N)c4)c3o2)ccc1C(=O)N[C@@H]1CCCNC1" ?
Result: < 0.3 µM

====

Please find below pIC50 data on IKKε (Homo sapiens, UniProt Q14164) compiled from the literature.
pIC50: −log10 of the molar value.

Task: Record request: pIC50 value, item "COc1cc(Nc2cc(-c3ccc(OC4CCOCC4)c(C#N)c3)ncn2)cnc1N1CCN(C)CC1"
Result: 6.00 to 7.00

Task: # get_value(readout='pIC50', item= "CN1CCN(c2cccc(-c3cc4nccc(-c5ccc(OC6CCOCC6)c(C#N)c5)c4o3)c2)CC1" )
Result: > 6.52

Task: Query: pIC50; subject: "COc1nc(Nc2cc(-c3ccc(OC4CCOCC4)c(C#N)c3)ncn2)ccc1C(=O)N(C)CCO"
Result: > 7.00

Task: Given the compound "N#Cc1cc(-c2c[nH]c3ncc(-c4cnn(C5CCNCC5)c4)cc23)cnc1OC1CCOCC1" , what is its reported pIC50?
Result: > 6.52

Task: // returns reported pIC50 for input "Cc1cc(NC(=O)c2cc(-c3csc(CN4CCOCC4)c3)cnc2N)ccn1"
Result: 5.70

Task: Name the reported pIC50 value associated with the compound CC1C=C(c2c[nH]c3ncc(-c4ccc(CN5CCN(C)CC5)s4)cc23)CCN1C(=O)NC1CC1 (stereo not drawn)
Result: 8.19

Task: What measured pIC50 goes with CC1C=C(c2c[nH]c3ncc(-c4ccc(CN5CCN(C)CC5)cc4)cc23)CCN1C(=O)NC1CCC1 (stereo not drawn) ?
Result: 7.19

Task: Please look up its pIC50: "CN1CCC(n2cc(-c3cnc4[nH]cc(-c5ccc(OC6CCOCC6)c(C#N)c5)c4c3)cn2)CC1"
Result: > 6.52

Task: Which pIC50 value belongs to "N#Cc1cc(-c2ccnc3cc(-c4ccc(C(=O)N5CCNCC5)cc4)sc23)ccc1OC1CCOCC1" ?
Result: > 6.52
